# target_under_test: Tubulin (Bos taurus) (UniProt Q6B856+Q862L2+Q862F3);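 further: Read-out is polymerization of tubulin isolated from bovine brain, given as percent inhibition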
# test_parameters: at 10 µM
# Description: Inhibition of tubulin polymerization in bovine brain at 10 uM
readout_label: inhibition
Give me the value, and tack the unit on after it.

Consider the following illustrative entries.
molecule=COc1ccc(CNc2n[nH]c(-c3cccnc3Oc3cc(OC)cc(OC)c3)n2)cc1 readout_label=inhibition experimental_value=86%
molecule=COc1cc(Nc2ccncc2-c2n[nH]c(Nc3ccc4c(c3)OCO4)n2)cc(OC)c1 readout_label=inhibition experimental_value=100%
molecule=COc1cc(Nc2ncccc2-c2n[nH]c(Nc3ccc(C#N)cc3)n2)cc(OC)c1 readout_label=inhibition experimental_value=34%
molecule=COc1cc(Nc2ncccc2-c2n[nH]c(Nc3ccc4c(c3)OCCO4)n2)cc(OC)c1 readout_label=inhibition experimental_value=95%
molecule=COc1cccc(Nc2n[nH]c(-c3cccnc3Nc3cccc(OC)c3)n2)c1 readout_label=inhibition experimental_value=9%
molecule=COc1cc(OC)cc(Oc2ncccc2-c2n[nH]c(Nc3cccc(O)c3)n2)c1 readout_label=inhibition experimental_value=100%
molecule=COc1cc(Nc2ncccc2-c2nc(-c3cccc(OC)c3)n[nH]2)cc(OC)c1 readout_label=inhibition experimental_value=15%
molecule=Fc1ccc(CNc2ncccc2-c2n[nH]c(Nc3ccc4c(c3)OCO4)n2)cc1F readout_label=inhibition experimental_value=84%

Go through the items and report each one's inhibition.
1. COc1cc(Nc2ncccc2-c2n[nH]c(Nc3ccc(N(C)C)cc3)n2)cc(OC)c1
2. COc1cc(Nc2ncccc2-c2nc(Nc3ccc4c(c3)OCCO4)n(C)n2)cc(OC)c1
3. COc1ccc(CNc2ncccc2-c2n[nH]c(Nc3ccc4c(c3)OCCO4)n2)cc1
4. COc1cccc(Nc2n[nH]c(-c3cccnc3Nc3cc(OC)cc(OC)c3)n2)c1
5. COc1cc(Nc2ncccc2-c2n[nH]c(Nc3cc(Cl)cc(Cl)c3)n2)cc(OC)c1
6. c1cncc(CCNc2ncccc2-c2n[nH]c(Nc3ccc4c(c3)OCCO4)n2)c1

1: 35%; 2: 76%; 3: 68%; 4: 80%; 5: 44%; 6: 23%

Where do the numbers come from? From ChEMBL document CHEMBL1141190.
